Hey, just so you know, these numbers are from ChEMBL document CHEMBL2448809.

# Lookup of reported Ratio keyed by entry
# Tested on: Plasmodium falciparum
# test: MMV: Compounds (1uM) were screened in a 72hr growth assay monitored by flow cytometry both in the presence and absence of supplemental isopentenyl pyrophosphate (IPP) 200uM. Compounds which fail to show anti-malarial activity when chemically rescued by IPP are therefore specific to the apicoplast. The values are expressed as the ratio of the corresponding activity with and without IPP, respectively.
# Assay type: functional, W2

Illustrative cases are given below, each with its answer.
molecule: C=C(C)CCC(C)N1CCC(N2CCC(C(=O)NCCc3ccccc3)CC2)CC1 (stereo not drawn)
result: 0.756
--
molecule: CN1C=C(c2ccc3ccccc3n2)C(c2c[nH]c3ccccc23)c2ccccc21 (stereo not drawn)
result: 1.295
--
molecule: COc1ccc(C(=O)NC(c2ccccc2Cl)c2cc(Cl)c3cccnc3c2O)cc1 (stereo not drawn)
result: 1.365
--
molecule: OC(CNC1CCCC1)Cn1c2ccccc2c2ccccc21 (stereo not drawn)
result: 1.151

Let us move to another entry and its Ratio.
Exam item: Any idea what its Ratio is? The molecule is COc1cc(C(=O)ON=C(N)Cc2cccc3ccccc23)cc(OC)c1OC
Marked response: 1.265
